Target: T1, human IL-17F homodimer (human, UniProt Q96PD4 31-163)
T1 sequence: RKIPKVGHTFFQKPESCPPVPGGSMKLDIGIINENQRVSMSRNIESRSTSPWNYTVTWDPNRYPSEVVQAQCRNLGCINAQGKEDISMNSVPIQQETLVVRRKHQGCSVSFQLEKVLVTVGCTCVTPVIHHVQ
Test: cell-based or functional assay
measurementKind: IC50, NIH/3T3/KZ170 NF-kB luciferase reporter (nM)
Write it as a number; the unit nM goes unstated.

## Input Look up and state reported IC50, NIH/3T3/KZ170 NF-kB luciferase reporter for 339-39 (antibody, human IgG1, V domains shown) VH: QVQLVQSGAEVKKPGASVKVSCKASGYTFNEYTMHWVKQSHGQRLEWMGGINPNSGGVSYNQNFKGKATLTVDTSSSTAYMELSSLRSEDTAVFYCARGGDGYYTNYFDIDYWGQGTTVTVSS VL: EIVLTQSPDFQSVTPKEKVTITCSASSSVNYMHWYQQKPDQSPKLLIKDTSKLASGVPSRFSGSGSGTDFTLTINSLEAEDAATYYCQQWNSHPLTFGQGTKLEIK
## Output 0.25

## Input Look up and state reported IC50, NIH/3T3/KZ170 NF-kB luciferase reporter for 339-71 (antibody, human IgG1, V domains shown) VH: QVQLVQSGAEVKKPGASVKVSCKASGYTFTEYTMHWVRQAPGQRLEWMGGINPNSGGVSYNQNFKGKATLTVDTSASTAYMELSSLRSEDTAVYYCARGGDGYYTNYFDIDYWGQGTTVTVSS VL: EIVLTQSPDFQSVTPKEKVTITCSASSSVNYMHWYQQKPDQSPKLLIKDTSKLASGVPSRFSGSGSGTDFTLTINSLEAEDAATYYCQQWNSHPLTFGQGTKLEIK
## Output 0.2

## Input Look up and state reported IC50, NIH/3T3/KZ170 NF-kB luciferase reporter for humanized anti-human IL-17A/F antibody 339-134 mAb IgG1.1 (antibody, V domains shown, IgG1.1/kappa; also called MVC978/MVC717; humanized parent) VH: QVQLVQSGAEVKKPGASVKVSCKASGYTFNEYTMHWVKQAPGQRLEWMGGINPNSGGVSYNQNFKGKATLTVDTSASTAYMELSSLRSEDTAVYYCARGGDGYYTNYFDIDYWGQGTTVTVSS VL: DIQMTQSPSSLSASVGDRVTITCSASSSVNYMHWYQQKPGKVPKLLIYDTSKLASGVPSRFSGSGSGTDFTLTISSLQPEDVATYYCQQWNSHPLTFGQGTKLEIKR
## Output 0.24

Value source: patent US20170275357A1
